- target.of.assay: T1, extracellular domain (ECD) of human TrkA protein, N-terminal flag tag and C-terminal His tag (PHA) (human, UniProt P04629 33-423)
- T1 construct: Made in 293-F cells and purified by IMAC; also called TrkA ECD protein; TrkA (ECD); not shown: flag tag at the N-terminus (after the signal peptide); His tag at the C-terminus
- test.name: affinity after affinity maturation; method not stated in Example 5
Consider the following binders; for each one, report its koff.

The following binders have reported results that may help.
chi-PHD49 (antibody, V domains shown, Chimeric: human IgG4 / human kappa constant regions (pCDNA3.4-hIgG4 and pCDNA3.4-hKappa vectors)) VH: QVQLQQSGAELARPGASVKLSCKASGYTFSSYWMQWVKQRPGQGLEWIGAIYPGDDDTIYTQKFKGKATLTADKSSSTAYMQLSSLASEDSAVYYCARNYDYQAWFAYWGQGTLVTVSA VL: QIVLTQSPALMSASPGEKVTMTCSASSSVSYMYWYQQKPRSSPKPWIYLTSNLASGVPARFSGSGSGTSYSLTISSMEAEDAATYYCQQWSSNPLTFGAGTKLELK = 0.000665 s⁻¹
PHD49-05 (antibody, V domains shown) VH: QVQLVQSGAEVKKPGSSVKVSCKASGYTFSSHWIQWVRQAPGQGLEWIGAIYPGDDDTIYTQKFQGRATITTDKSTSTAYMELSSLRSEDTAVYYCARNYDYQAWFAYWGQGTLVTVSS VL: DIQMTQSPSSLSASVGDRVTITCRASSSVSYLYWYQQKPGKAPKPLIYLTSSLASGVPSRFSGSGSGTDYTLTISSLQPEDFATYYCQQWSSNPLTFGQGTKLEIK = 0.000174 s⁻¹
PHD49 (antibody, V domains shown) VH: QVQLVQSGAEVKKPGSSVKVSCKASGFTFSSYWIQWVRQAPGQGLEWIGAIYTGDGDTIYTQKFQGRATITTDESTSTAYMELSSLRSEDTAVYYCARNYHYQAWFDYWGQGTLVTVSS VL: DIQMTQSPSSLSASVGDRVTITCRASSSVSYLYWYQQKPGKAPKPLIYLTSSLASGVPSRFSGSGSGTDYTLTISSLQPEDFATYYCQQWSSNPLTFGQGTKLEIK = 5.21e-05 s⁻¹

Given PHD49-21 (antibody, V domains shown) VH: QVQLVQSGAEVKKPGSSVKVSCKASGFTFSSYWIQWVRQAPGQGLEWIGAIYTGDGDTIYTQKFQGRATITTDESTSTAYMELSSLRSEDTAVYYCARNYHYQAWFDYWGQGTLVTVSS VL: DIQMTQSPSSLSASVGDRVTITCRASSSVSYLYWYQQKPGKAPKPLIYLTSDLASGVPSRFSGSGSGTDYTLTISSLQPEDFATYYCQQWSSNPLTFGQGTKLEIK , state its recorded koff. 9.51e-05 s⁻¹
